Origin of values: ChEMBL document CHEMBL3045736

MIC values for the compounds below.
- Test system: Staphylococcus aureus
- PROCEDURE TEXT: Antibacterial activity against Staphylococcus aureus after 24 hr by p-iodonitrotetrazolium assay
- Format: functional

{"COMPOUND STRUCTURE": "CC(C)=CCC1=C(O)C(=O)c2ccccc2C1=O", "MIC": "> 78.1 µg/mL"}

Asked: Returns the measured MIC for the input compound. Input: CC(=O)OC=CC1=C(O)C(=O)c2ccccc2C1=O
Given back: > 78.1 µg/mL

Asked: // query: O=CCC1=C(O)C(=O)c2ccccc2C1=O
Given back: > 78.1 µg/mL
